- System tested: T1, human tissue factor (TF), membrane-bound on cells (human, UniProt P13726 33-295)
- T1 construct: whole, on cells; also called cellular TF
- Measurement description: FACS, A431 cells, 30 µg/mL
Property: Max MFI; scope: individual binders
A bare number is all that is needed in reply.

Binder	Max MFI
anti-TF HuMab 013 (antibody, V domains shown, Human monoclonal antibody from HuMab mice; also called HuMab-TF-13) VH: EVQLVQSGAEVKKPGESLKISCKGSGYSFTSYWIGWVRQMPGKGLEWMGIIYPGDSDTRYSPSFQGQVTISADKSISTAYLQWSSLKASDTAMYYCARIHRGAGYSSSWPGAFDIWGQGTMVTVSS VL: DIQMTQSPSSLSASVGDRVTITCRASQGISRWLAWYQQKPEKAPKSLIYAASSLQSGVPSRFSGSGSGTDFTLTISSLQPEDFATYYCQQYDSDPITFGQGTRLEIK	3620

Let us move to another entry and its Max MFI.
Entry anti-TF HuMab 025 (antibody, V domains shown, Human monoclonal antibody from HuMab mice) VH: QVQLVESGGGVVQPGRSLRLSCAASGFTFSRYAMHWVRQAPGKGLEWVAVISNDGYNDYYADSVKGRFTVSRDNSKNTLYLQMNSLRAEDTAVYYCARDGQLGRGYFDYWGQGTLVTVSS VL: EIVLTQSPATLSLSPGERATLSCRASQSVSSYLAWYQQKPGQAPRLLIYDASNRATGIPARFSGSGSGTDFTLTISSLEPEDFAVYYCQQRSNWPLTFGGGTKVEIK , Max MFI reported as 3170
